Assign EC50 to each entry below.
molecular target: human muscarinic M1 receptor (Homo sapiens); assay: Alphascreen Surefire phospho-ERK1/2 functional assay, M1; type: cell-based; details: CHO cells stably expressing human M1; phospho-ERK1/2; read-out: pEC50 M1 (converted)
Sequence (P11229 whole entry): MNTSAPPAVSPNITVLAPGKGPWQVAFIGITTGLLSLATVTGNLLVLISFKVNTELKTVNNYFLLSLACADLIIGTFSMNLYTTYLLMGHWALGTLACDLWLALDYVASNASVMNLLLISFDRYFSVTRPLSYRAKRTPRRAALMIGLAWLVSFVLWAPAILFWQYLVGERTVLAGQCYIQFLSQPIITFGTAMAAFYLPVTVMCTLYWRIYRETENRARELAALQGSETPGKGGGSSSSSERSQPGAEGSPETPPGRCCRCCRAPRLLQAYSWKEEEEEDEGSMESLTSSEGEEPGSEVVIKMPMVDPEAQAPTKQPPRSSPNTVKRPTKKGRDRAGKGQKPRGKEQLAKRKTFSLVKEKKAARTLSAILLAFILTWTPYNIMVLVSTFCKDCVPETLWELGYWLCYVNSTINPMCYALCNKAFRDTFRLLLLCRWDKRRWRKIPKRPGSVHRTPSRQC

# compound CCOC(=O)N1C2COCC1CC(N1CCC3(CC1)CNC(=O)O3)C2 (single isomer, unassigned) [Example 5-3 Isomer 2] ; its EC50 = 126 nM

Value of EC50 reported for the compound CCOC(=O)N1C2COCC1CC(N1CCC(c3cccc(OC)n3)CC1)C2 (single isomer, unassigned) [Example 2-1 Isomer 2] is 158 nM

// recorded EC50 for CCOC(=O)N1C2COCC1CC(N1CCC(c3cccc(OC)n3)CC1)C2 (single isomer, unassigned) [Example 2-1 Isomer 1] : 251 nM

Measured EC50, CCOC(=O)N1C2COCC1CC(N1CCC(N(CC(C)(C)C)C(C)=O)CC1)C2 (single isomer, unassigned) [Example 6-2 Isomer 1] : 617 nM

Short answer for CCOC(=O)N1C2COCC1CC(N1CCC(C(=O)N3CCCCCC3)CC1)C2 (single isomer, unassigned) [Example 7-4 Isomer 1] : EC50 was 550 nM

Short answer for CCOC(=O)N1C2COCC1CC(N1CCC(C#N)(c3ccccn3)CC1)C2 (single isomer, unassigned) [Example 3-1 Isomer 1] : EC50 was 1380 nM
